Drug uptake listing for selected molecules.
Experiment: Drug uptake in tumor of female nude mouse harboring null mutation of CD1 antigen complex xenografted with human U-87 MG cells at 5 to 7.4 MBq, iv measured at 60 mins by PET/CT analysis
Format: ADME, organism-based, Neoplasm
Conditions: in vivo, 1 h, dose 5-7.4 MBq

Example cases with answers are listed next.
Molecule: COC(C[18F])COc1ccc2nccc(C(=O)NCC(=O)N3CC(F)(F)C[C@H]3C#N)c2c1 (some centres undefined)
Drug uptake: < 3 %ID/ml
//
Molecule: [2H]C([2H])([18F])[N+](C)(C)CCCOc1ccc2nccc(C(=O)NCC(=O)N3CC(F)(F)C[C@H]3C#N)c2c1
Drug uptake: 10.16 %ID/ml
//
Molecule: N#C[C@@H]1CC(F)(F)CN1C(=O)CNC(=O)c1ccnc2ccc(OCC(O)C[18F])cc12 (some centres undefined)
Drug uptake: < 3 %ID/ml

--- query ---
Prompt line: Which value of Drug uptake has been reported for N#C[C@@H]1CC(F)(F)CN1C(=O)CNC(=O)c1ccnc2ccc(OCC(O)C(O)C[18F])cc12 (some centres undefined) in the records?
Response line: < 3 %ID/ml

====

Test: Drug uptake in kidney of female nude mouse harboring null mutation of CD1 antigen complex assessed as increase in renal excretion at 5.1 to 7.4 MBq, iv measured after 15 to 60 mins by gamma counter analysis
Type: ADME, organism-based
Settings: in vivo, dose lower 5.1 MBq, time lower 15 min, dose upper 7.4 MBq, time upper 60 min
Value Type: Drug uptake

Molecule: N#C[C@@H]1CC(F)(F)CN1C(=O)CNC(=O)c1ccnc2ccc(OCC(O)C(O)C[18F])cc12 (some centres undefined)
Recorded Value: Active
--
Molecule: [2H]C([2H])([18F])[N+](C)(C)CCCOc1ccc2nccc(C(=O)NCC(=O)N3CC(F)(F)C[C@H]3C#N)c2c1
Recorded Value: Active
--
Molecule: COC(C[18F])COc1ccc2nccc(C(=O)NCC(=O)N3CC(F)(F)C[C@H]3C#N)c2c1 (some centres undefined)
Recorded Value: Active
--
Molecule: N#C[C@@H]1CC(F)(F)CN1C(=O)CNC(=O)c1ccnc2ccc(OCC(O)C[18F])cc12 (some centres undefined)
Recorded Value: Active

====

Assay: Ratio of drug level in tumor to small intestine of female nude mouse harboring null mutation of CD1 antigen complex xenografted with human U-87 MG cells at 5 to 7.4 MBq, iv measured at 60 mins postinjection by gamma counter analysis
Assay type: ADME, organism-based
Details: in vivo, 1 h, dose 5-7.4 MBq
Value Type: Ratio

Molecule: N#C[C@@H]1CC(F)(F)CN1C(=O)CNC(=O)c1ccnc2ccc(OCC(O)C[18F])cc12 (some centres undefined)
Recorded Value: 0.16

[I] COC(C[18F])COc1ccc2nccc(C(=O)NCC(=O)N3CC(F)(F)C[C@H]3C#N)c2c1 (some centres undefined)
[II] [2H]C([2H])([18F])[N+](C)(C)CCCOc1ccc2nccc(C(=O)NCC(=O)N3CC(F)(F)C[C@H]3C#N)c2c1
[III] N#C[C@@H]1CC(F)(F)CN1C(=O)CNC(=O)c1ccnc2ccc(OCC(O)C(O)C[18F])cc12 (some centres undefined)
Prompt line: Highest Ratio first, then in falling order down to the smallest. Answer by naming the labels in the order asked.
Response line: II, I, III
(II: 2.43, I: 0.22, III: 0.12)

====

Biological target: Prolyl endopeptidase FAP (Homo sapiens, UniProt Q12884)
Sequence (Q12884 whole entry): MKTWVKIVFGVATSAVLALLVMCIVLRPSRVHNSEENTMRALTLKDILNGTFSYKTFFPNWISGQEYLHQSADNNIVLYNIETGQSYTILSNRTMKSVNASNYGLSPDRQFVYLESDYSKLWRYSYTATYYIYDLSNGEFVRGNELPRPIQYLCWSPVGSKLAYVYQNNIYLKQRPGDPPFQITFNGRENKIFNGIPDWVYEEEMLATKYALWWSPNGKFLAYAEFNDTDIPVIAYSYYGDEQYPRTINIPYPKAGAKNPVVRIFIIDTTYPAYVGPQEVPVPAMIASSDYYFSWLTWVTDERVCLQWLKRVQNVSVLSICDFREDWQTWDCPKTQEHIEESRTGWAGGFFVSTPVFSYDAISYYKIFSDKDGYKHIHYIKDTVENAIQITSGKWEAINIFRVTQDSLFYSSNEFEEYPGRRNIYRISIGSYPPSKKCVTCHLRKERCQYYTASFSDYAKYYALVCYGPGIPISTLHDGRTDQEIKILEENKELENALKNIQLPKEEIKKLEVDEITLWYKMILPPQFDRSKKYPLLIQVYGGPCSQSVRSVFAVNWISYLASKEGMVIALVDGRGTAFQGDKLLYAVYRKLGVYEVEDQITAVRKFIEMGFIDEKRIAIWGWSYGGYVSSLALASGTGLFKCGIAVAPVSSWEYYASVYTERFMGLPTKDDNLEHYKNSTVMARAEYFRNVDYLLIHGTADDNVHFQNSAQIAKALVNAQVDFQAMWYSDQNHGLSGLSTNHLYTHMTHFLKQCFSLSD
Experiment: Inhibition of FAP (unknown origin)
Value Type: IC50 (nM)
Respond with the bare value in nM.

Prompt line: Lab note: need IC50 with Prolyl endopeptidase FAP (Homo sapiens, UniProt Q12884) for entry `CN(CC(=O)O)C1(CCCCNCCNc2c(NCCCCOc3ccc4nccc(C(=O)NCC(=O)N5CC(F)(F)C[C@H]5C#N)c4c3)c(=O)c2=O)CN(CC(=O)O)CCN(CC(=O)O)C1` , please look it up.
Response line: 0.8

meta.source: ChEMBL document CHEMBL5543163
